# maps each entry to its IPP screening %, Coactivator recruitment
target: Estrogen receptor, ER1 (h) (Homo sapiens); construct: purchased Eurofins Cerep (SafetyScreen44-based IPP panel); assay: IPP ER1 coactivator recruitment (agonist); format: biochemical; details: 100 uM, estriol, * denotes assay interference (2-Amino-6-chloro-4-nitrophenol, HC Red 3)
Sequence (P03372 whole entry): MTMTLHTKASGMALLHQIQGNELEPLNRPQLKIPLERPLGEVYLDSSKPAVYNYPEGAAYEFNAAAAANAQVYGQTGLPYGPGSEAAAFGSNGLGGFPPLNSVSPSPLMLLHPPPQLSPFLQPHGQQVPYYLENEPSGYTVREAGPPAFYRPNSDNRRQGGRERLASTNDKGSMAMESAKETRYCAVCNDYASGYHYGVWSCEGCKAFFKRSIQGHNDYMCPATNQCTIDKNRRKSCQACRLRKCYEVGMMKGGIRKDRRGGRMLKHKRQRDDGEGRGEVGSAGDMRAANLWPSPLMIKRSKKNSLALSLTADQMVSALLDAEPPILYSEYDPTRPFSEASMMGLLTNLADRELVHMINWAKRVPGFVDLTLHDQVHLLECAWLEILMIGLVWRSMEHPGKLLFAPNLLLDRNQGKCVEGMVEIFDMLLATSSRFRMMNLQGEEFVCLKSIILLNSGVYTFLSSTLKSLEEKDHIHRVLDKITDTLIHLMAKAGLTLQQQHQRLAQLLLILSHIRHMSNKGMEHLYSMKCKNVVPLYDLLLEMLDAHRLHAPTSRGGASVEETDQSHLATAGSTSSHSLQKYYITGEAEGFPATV
Peptide text beside a SMILES is read from it.

[
  {
    "COMPOUND": "Cc1c(O)cccc1O",
    "IPP screening %, Coactivator recruitment": "13.0%"
  }
]

What is its IPP screening %, Coactivator recruitment for Estrogen receptor, ER1 (h) (Homo sapiens)? Entry: "CC(C)[C@H](N)C(=O)O"
0.0%

What is its IPP screening %, Coactivator recruitment for Estrogen receptor, ER1 (h) (Homo sapiens)? Entry: CC1(C)O[C@@H]2[C@@H](CO[C@@]3(COS(N)(=O)=O)OC(C)(C)O[C@@H]23)O1 [Topiramate]
-1.0%

What is its IPP screening %, Coactivator recruitment for Estrogen receptor, ER1 (h) (Homo sapiens)? Entry: O=C(O)c1ccc2c(c1)C(=O)OC2=O [Trimellitic anhydride]
1.0%

What is its IPP screening %, Coactivator recruitment for Estrogen receptor, ER1 (h) (Homo sapiens)? Entry: CCOc1cc(CCC(C)=O)ccc1O [Ethylzingerone, 4-(3-Ethoxy-4-hydroxyphenyl)butan-2-one]
2.0%

What is its IPP screening %, Coactivator recruitment for Estrogen receptor, ER1 (h) (Homo sapiens)? Entry: CCCCCCC(O)CO (stereo not drawn)
0.0%

What is its IPP screening %, Coactivator recruitment for Estrogen receptor, ER1 (h) (Homo sapiens)? Entry: "Nc1cc([N+](=O)[O-])cc(Cl)c1O"
6.0* %

What is its IPP screening %, Coactivator recruitment for Estrogen receptor, ER1 (h) (Homo sapiens)? Entry: CCN(CC)C(=O)c1cccc(C)c1 [DEET, N,N-Diethyl-3-methylbenzamide]
2.0%

What is its IPP screening %, Coactivator recruitment for Estrogen receptor, ER1 (h) (Homo sapiens)? Entry: COC(=O)[C@H](Cc1ccccc1)NC(=O)[C@@H](N)CC(=O)O [Aspartame] (H-Asp-Phe-OMe)
0.0%
